- Tested on: Plasmodium falciparum
- ASSAY_REMARKS: Inhibition of Plasmodium falciparum protein farnesyltransferase at 50 nM by scintillation proximity assay
MEASURED_METRIC: inhibition (%)

// solved cases for inhibition follow
- COMPOUND: "CN(CCCN(C1Cc2cc(C#N)ccc2N(Cc2cncn2C)C1)S(=O)(=O)c1ccccn1)C(=O)OC(C)(C)C (configuration not stated)"
  inhibition (%): 86
- COMPOUND: "Cn1cncc1CN1CC(N(CCc2ccc(F)cc2)S(=O)(=O)c2ccccn2)Cc2cc(C#N)ccc21 (configuration not stated)"
  inhibition (%): 96
- COMPOUND: "Cn1cnc(S(=O)(=O)N(Cc2ccc(C(F)(F)F)o2)C2Cc3cc(C#N)ccc3N(Cc3cncn3C)C2)c1 (configuration not stated)"
  inhibition (%): 97
- COMPOUND: "Cc1oncc1CN(C1Cc2cc(C#N)ccc2N(Cc2cncn2C)C1)S(=O)(=O)c1ccccn1 (configuration not stated)"
  inhibition (%): 94
- COMPOUND: "Cn1cnc(CN2CC(N(CC(=O)NC(C)(C)C)S(=O)(=O)c3cn(C)cn3)Cc3cc(-c4ccccc4)ccc32)c1 (configuration not stated)"
  inhibition (%): 97
- COMPOUND: "C=C(C)CN(C1Cc2cc(-c3ccccc3)ccc2N(Cc2cn(C)cn2)C1)S(=O)(=O)c1cn(C)cn1 (configuration not stated)"
  inhibition (%): 99

a: Cn1cncc1CN1CC(N(CCNC(=O)OC(C)(C)C)S(=O)(=O)c2ccccn2)Cc2cc(C#N)ccc21 (configuration not stated)
b: COC(=O)N1CCC(CN(C2Cc3cc(C#N)ccc3N(Cc3cccnc3)C2)S(=O)(=O)c2ccccn2)CC1 (configuration not stated)
c: Cc1oncc1S(=O)(=O)N(CC(=O)NC(C)(C)C)C1Cc2cc(C#N)ccc2N(Cc2cncn2C)C1 (configuration not stated)
Lookup: Your job: order these 3 records by inhibition, ascending. // format: requested-order list of labels
Found: c, b, a
(c: 3%, b: 35%, a: 91%)

a: CN(CCCCN(C1Cc2cc(C#N)ccc2N(Cc2cncn2C)C1)S(=O)(=O)c1ccccn1)C(=O)OC(C)(C)C (configuration not stated)
b: Cn1cnc(S(=O)(=O)N(CC(=O)NC(C)(C)C)C2Cc3cc(C(=O)NC(C)(C)C)ccc3N(Cc3cncn3C)C2)c1 (configuration not stated)
Lookup: Lab note: check whether a or b shows the higher recorded inhibition. Pick one and reply with its label.
Found: a
(a: 98%, b: 25%)

----------
- System: Plasmodium falciparum
- ASSAY_REMARKS: Inhibition of Plasmodium falciparum protein farnesyltransferase at 5 nM by scintillation proximity assay
MEASURED_METRIC: inhibition (%)

Reference set (6 entries):
- COMPOUND: "Cn1cncc1CN1CC(N(CC2CCN(C(=O)Nc3ccc(Br)cc3)CC2)S(=O)(=O)c2ccccn2)Cc2cc(C#N)ccc21 (configuration not stated)"
  TARGET_DESC: "Plasmodium falciparum"
  MEASURED: 0
- COMPOUND: "CCS(=O)(=O)c1ccc(CN(C2Cc3cc(C#N)ccc3N(Cc3cncn3C)C2)S(=O)(=O)c2ncn(C)c2C)cc1 (configuration not stated)"
  TARGET_DESC: "Plasmodium falciparum"
  MEASURED: 76
- COMPOUND: "Cc1nn(-c2ccccc2)nc1CN(C1Cc2cc(C#N)ccc2N(Cc2cncn2C)C1)S(=O)(=O)c1ccccn1 (configuration not stated)"
  TARGET_DESC: "Plasmodium falciparum"
  MEASURED: 66
- COMPOUND: "CN(CCCCN(C1Cc2cc(C#N)ccc2N(Cc2cncn2C)C1)S(=O)(=O)c1ccccn1)C(=O)OC(C)(C)C (configuration not stated)"
  TARGET_DESC: "Plasmodium falciparum"
  MEASURED: 78
- COMPOUND: "Cn1cnc(S(=O)(=O)N(Cc2ncoc2-c2ccccc2)C2Cc3cc(C#N)ccc3N(Cc3cncn3C)C2)c1 (configuration not stated)"
  TARGET_DESC: "Plasmodium falciparum"
  MEASURED: 20
- COMPOUND: "CCN(C1Cc2cc(-c3ccccc3)ccc2N(Cc2cncn2C)C1)S(=O)(=O)c1cn(C)cn1 (configuration not stated)"
  TARGET_DESC: "Plasmodium falciparum"
  MEASURED: 29

I: COC(=O)N1CCC(CN(C2Cc3cc(C#N)ccc3N(Cc3cncn3C)C2)S(=O)(=O)c2sccc2C)CC1 (configuration not stated)
II: Cn1cncc1CN1CC(N(CC2CCN(C(=O)C3CC3)CC2)S(=O)(=O)c2ccccn2)Cc2cc(C#N)ccc21 (configuration not stated)
Lookup: Which record would sort first by descending inhibition, I or II ? Write the label of whichever entry you select.
Found: I
(I: 66%, II: 39%)

1: Cn1cncc1CN1CC(N(CCc2ccc(F)cc2)S(=O)(=O)c2ccccn2)Cc2cc(C#N)ccc21 (configuration not stated)
2: COC(=O)N1CCC(CN(C2Cc3cc(C#N)ccc3N(Cc3cncn3C)C2)S(=O)(=O)c2ccc(NC(C)=O)cc2)CC1 (configuration not stated)
3: Cn1cnc(S(=O)(=O)N(CC(=O)NC(C)(C)C)C2Cc3cc(C(=O)NCc4ccccc4)ccc3N(Cc3cncn3C)C2)c1 (configuration not stated)
4: CC(C)S(=O)(=O)N1CCC(CN(C2Cc3cc(C#N)ccc3N(Cc3cncn3C)C2)S(=O)(=O)c2ccccn2)CC1 (configuration not stated)
Lookup: # desc sort on inhibition across 4 compounds Reply with the item labels sorted in the order that was asked for.
Found: 1, 4, 2, 3

1: COC(=O)N1CCC(CN(C2Cc3cc(C#N)ccc3N(Cc3cncn3C)C2)S(=O)(=O)c2cccc3cccnc23)CC1 (configuration not stated)
2: Cc1ccsc1S(=O)(=O)N(Cc1ccc(S(C)(=O)=O)cc1)C1Cc2cc(C#N)ccc2N(Cc2cncn2C)C1 (configuration not stated)
3: Cn1cnc(S(=O)(=O)N(CC2CCNCC2)C2Cc3cc(C#N)ccc3N(Cc3cncn3C)C2)c1 (configuration not stated)
4: Cn1cnc(S(=O)(=O)N(Cc2ccc3ccccc3c2Br)C2Cc3cc(C#N)ccc3N(Cc3cncn3C)C2)c1 (configuration not stated)
Lookup: Order each entry by recorded inhibition, climbing from the minimum. Answer format: the labels, ordered as requested.
Found: 3, 4, 2, 1

1: Cn1cnc(S(=O)(=O)N(CCCCN2C(=O)c3ccccc3C2=O)C2Cc3cc(C#N)ccc3N(Cc3cncn3C)C2)c1 (configuration not stated)
2: Cc1oncc1CN(C1Cc2cc(C#N)ccc2N(Cc2cncn2C)C1)S(=O)(=O)c1ccccn1 (configuration not stated)
Lookup: API: POST /compare with 1 and 2 ; response names the item with higher inhibition. Please respond with the label that marks your chosen entry.
Found: 1

----------
- System: Plasmodium falciparum
- ASSAY_REMARKS: Antimalarial activity against Plasmodium falciparum K1
- Type: functional
- CONDITION: Plasmodium falciparum, K1; read-out: ED50 (the source's name)
MEASURED_METRIC: EC50 (nM)

In the examples that follow, each entry is paired with its recorded EC50.
- COMPOUND: "COCCCCCN(C1Cc2cc(C#N)ccc2N(Cc2cncn2C)C1)S(=O)(=O)c1ccccn1 (configuration not stated)"
  EC50 (nM): 932
- COMPOUND: "Cn1cncc1CN1CC(N(CCc2ccc(F)cc2)S(=O)(=O)c2ccccn2)Cc2cc(C#N)ccc21 (configuration not stated)"
  EC50 (nM): 650
- COMPOUND: "Cn1cncc1CN1CC(N(CC2CCN(C(=O)Nc3ccc(Br)cc3)CC2)S(=O)(=O)c2ccccn2)Cc2cc(C#N)ccc21 (configuration not stated)"
  EC50 (nM): 2800
- COMPOUND: "COC(=O)N1CCC(CN(C2Cc3cc(C#N)ccc3N(Cc3cncn3C)C2)S(=O)(=O)c2ccc(NC(C)=O)cc2)CC1 (configuration not stated)"
  EC50 (nM): 2000

a: COC(=O)N(C)CCCCN(C1Cc2cc(C#N)ccc2N(Cc2cncn2C)C1)S(=O)(=O)c1ccccn1 (configuration not stated)
b: Cn1cnc(S(=O)(=O)N(Cc2cc3nsnc3cc2Cl)C2Cc3cc(C#N)ccc3N(Cc3cncn3C)C2)c1 (configuration not stated)
c: CC(C)NC(=O)N1CCC(CN(C2Cc3cc(C#N)ccc3N(Cc3cncn3C)C2)S(=O)(=O)c2ccccn2)CC1 (configuration not stated)
d: Cn1cncc1CN1CC(N(Cc2ccccc2F)S(=O)(=O)c2cccc3nsnc23)Cc2cc(C#N)ccc21 (configuration not stated)
Lookup: Please list these compounds in decreasing order of EC50. Enter labels, ranked according to the request.
Found: b, d, a, c

A: Cn1cnc(CN2CC(N(CCn3cccc3)S(=O)(=O)c3cn(C)cn3)Cc3cc(-c4ccccc4)ccc32)c1 (configuration not stated)
B: C=C(Br)CN(C1Cc2cc(-c3ccccc3)ccc2N(Cc2cncn2C)C1)S(=O)(=O)c1cn(C)cn1 (configuration not stated)
Lookup: Quick one: lower EC50, A or B ? // return label of chosen record
Found: A
(A: 150 nM, B: 360 nM)

A: Cn1cnc(CN2CC(N(CC(=O)NC(C)(C)C)S(=O)(=O)c3ccccn3)Cc3cc(-c4ccccc4)ccc32)c1 (configuration not stated)
B: Cn1cncc1CN1CC(N(CCn2ccnc2)S(=O)(=O)c2ccccn2)Cc2cc(C#N)ccc21 (configuration not stated)
C: Cn1cncc1CN1CC(N(Cc2cccnc2)S(=O)(=O)c2ccccn2)Cc2cc(C#N)ccc21 (configuration not stated)
Lookup: Exam item: list the entries in increasing order of EC50. Give the labels in the order requested.
Found: B, C, A
(B: 16 nM, C: 490 nM, A: 3000 nM)
